B1: minF1; the commonest letter at each place (parent)
chain: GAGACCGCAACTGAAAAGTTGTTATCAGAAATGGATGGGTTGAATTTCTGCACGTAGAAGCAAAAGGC

Variants of: B1
Test summary: fraction ligated after 30 min (ligated reads / total reads); higher = more ligase activity
Experimental setup: with F1*subA RNA substrate (template-directed ligation), 42 °C
Parameter: fraction ligated. Scope: all listed entries.
Property measured: fraction ligated

G34A    0.0464
A31T A35G    0.339
C26A T36A    0.0039
A27C A35G    0.112
T23G T32G    0.0266
T32G G33C    0.00893
C26G A29C    0.0431
T23C G33C    0.147
T23A C26A    0.00635
T23G G34A    0.0854
A29T A31T    0.828
A31G G34T    0.00852
T23G A44G    0.764
G28T A43C    0.117
